# TARGET OF ASSAY: NaGLT1 (Rattus norvegicus, UniProt Q80T22, M166I/S3F)
# Construct: expressed in transfected cells; host or cells: Xenopus oocytes injected with NaGLT1 RNA synthesized in vitro
# Sequence (Q80T22 whole entry, stated change not applied): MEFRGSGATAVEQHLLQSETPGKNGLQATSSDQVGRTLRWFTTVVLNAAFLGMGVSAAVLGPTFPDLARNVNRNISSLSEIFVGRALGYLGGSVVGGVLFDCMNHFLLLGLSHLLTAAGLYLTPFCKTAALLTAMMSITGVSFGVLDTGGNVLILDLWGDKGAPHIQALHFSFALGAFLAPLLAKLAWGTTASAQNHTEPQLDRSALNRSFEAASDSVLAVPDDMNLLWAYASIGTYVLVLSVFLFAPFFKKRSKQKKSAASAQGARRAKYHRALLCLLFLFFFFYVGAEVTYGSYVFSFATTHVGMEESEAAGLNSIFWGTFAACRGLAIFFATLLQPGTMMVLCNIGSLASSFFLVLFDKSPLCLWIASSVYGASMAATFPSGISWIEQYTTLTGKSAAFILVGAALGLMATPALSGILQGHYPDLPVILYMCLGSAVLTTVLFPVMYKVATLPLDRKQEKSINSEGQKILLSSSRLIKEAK
# TEST: Effect of inhibitors on uptake of [14C]-labeled αMeGlc by NaGLT1-expressing oocytes
# Assay type: cell-based
MEASURE NAME: effect on the uptake of [14C]-labeled αMeGlc

CO[C@@H]([C@H](O)[C@H](O)CO)[C@@H](O)C=O | no effect
O=C(CO)[C@@H](O)[C@H](O)[C@H](O)CO | weak inhibitory effect
O=C[C@H](O)[C@@H](O)[C@@H](O)[C@H](O)CO | no effect
O=C(CCc1ccc(O)cc1)c1c(O)cc(O)cc1O | weak inhibitory effect

The record that follows has no effect on the uptake of [14C]-labeled αMeGlc shown yet.
Given the molecule O=C[C@@H](O)[C@H](O)[C@@H](O)[C@@H](O)CO and test system NaGLT1 (Rattus norvegicus, UniProt Q80T22, M166I/S3F), the measured effect on the uptake of [14C]-labeled αMeGlc is no effect

meta.source: patent US20060116505A1
